Molecular target: Nav1.7 (Homo sapiens, UniProt Q15858)
Construct: human Nav1.7 channels stably transfected in Expi293F cells
Sequence (Q15858 whole entry): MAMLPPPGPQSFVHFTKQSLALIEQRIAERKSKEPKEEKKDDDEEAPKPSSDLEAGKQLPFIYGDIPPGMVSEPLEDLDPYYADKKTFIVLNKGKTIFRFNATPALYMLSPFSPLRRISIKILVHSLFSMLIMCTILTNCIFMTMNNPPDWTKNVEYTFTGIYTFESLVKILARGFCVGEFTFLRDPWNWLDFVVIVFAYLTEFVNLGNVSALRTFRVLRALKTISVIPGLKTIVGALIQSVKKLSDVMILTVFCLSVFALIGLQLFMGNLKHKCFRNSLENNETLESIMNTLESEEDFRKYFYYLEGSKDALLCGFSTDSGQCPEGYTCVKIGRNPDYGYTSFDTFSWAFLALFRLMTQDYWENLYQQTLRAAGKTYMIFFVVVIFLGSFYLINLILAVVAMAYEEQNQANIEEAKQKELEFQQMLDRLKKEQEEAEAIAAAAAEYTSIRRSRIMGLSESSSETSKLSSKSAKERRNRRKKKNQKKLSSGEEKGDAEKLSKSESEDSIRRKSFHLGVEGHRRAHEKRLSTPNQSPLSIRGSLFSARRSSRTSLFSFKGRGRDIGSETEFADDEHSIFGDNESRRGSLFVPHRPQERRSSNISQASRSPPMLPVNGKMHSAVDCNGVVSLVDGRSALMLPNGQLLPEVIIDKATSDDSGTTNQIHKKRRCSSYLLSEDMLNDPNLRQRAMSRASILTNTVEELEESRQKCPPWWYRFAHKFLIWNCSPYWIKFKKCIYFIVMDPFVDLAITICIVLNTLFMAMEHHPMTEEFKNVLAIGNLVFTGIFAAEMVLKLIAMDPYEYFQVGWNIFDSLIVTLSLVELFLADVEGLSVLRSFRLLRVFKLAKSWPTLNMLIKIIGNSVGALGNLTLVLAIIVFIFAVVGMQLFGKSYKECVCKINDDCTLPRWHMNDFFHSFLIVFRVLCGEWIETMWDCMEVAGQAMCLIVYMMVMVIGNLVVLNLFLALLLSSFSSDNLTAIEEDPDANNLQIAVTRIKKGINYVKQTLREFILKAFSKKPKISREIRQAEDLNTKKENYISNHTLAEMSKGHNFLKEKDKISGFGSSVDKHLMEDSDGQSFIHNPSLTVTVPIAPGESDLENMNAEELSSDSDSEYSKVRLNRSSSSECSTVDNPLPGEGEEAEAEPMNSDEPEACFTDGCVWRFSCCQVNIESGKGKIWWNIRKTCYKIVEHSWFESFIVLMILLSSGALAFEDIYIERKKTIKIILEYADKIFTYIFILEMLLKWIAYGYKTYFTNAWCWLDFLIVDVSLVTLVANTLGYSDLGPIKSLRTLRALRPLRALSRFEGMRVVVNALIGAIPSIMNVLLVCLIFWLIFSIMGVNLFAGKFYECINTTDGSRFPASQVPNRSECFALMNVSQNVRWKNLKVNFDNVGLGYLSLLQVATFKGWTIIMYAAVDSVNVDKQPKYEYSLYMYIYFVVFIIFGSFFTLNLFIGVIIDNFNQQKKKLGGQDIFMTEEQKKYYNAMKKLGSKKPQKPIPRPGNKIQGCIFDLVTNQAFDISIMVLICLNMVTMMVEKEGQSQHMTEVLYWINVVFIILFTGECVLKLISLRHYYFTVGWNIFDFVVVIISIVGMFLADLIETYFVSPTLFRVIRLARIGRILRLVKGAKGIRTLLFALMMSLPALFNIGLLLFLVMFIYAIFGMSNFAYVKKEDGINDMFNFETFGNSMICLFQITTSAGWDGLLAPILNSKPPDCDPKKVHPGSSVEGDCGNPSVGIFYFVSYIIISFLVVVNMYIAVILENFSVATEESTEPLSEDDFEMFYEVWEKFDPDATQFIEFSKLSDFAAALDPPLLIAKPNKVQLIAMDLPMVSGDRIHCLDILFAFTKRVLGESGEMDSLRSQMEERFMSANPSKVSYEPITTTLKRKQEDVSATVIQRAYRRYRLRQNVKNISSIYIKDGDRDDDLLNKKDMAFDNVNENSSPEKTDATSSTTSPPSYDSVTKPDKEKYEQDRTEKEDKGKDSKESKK
Test: automated whole-cell patch clamp (Qube-384); inverse apparent IC50 vs holding potential fit with four-state binding model
pKi: −log10 of the molar value.
quantity kind: pKi

* CCC(C)(C)c1ccc(CC(C)CN2C[C@@H](C)O[C@@H](C)C2)cc1 (stereo partly shown) | 5.44
